IC50 overview
System: TYK2 pseudokinase (JH2); IFNα-stimulated HEK-Blue IFNα/β cells
Assay: HEK-Blue IFNα/β reporter assay (STAT1-inducible SEAP) for profiling TYK2 pseudokinase (JH2) inhibition
Assay type: cell-based
Conditions: 1 ng/mL human recombinant IFNα, SEAP readout, read-out: IFNα (TYK2 inhibitory activity, IC50)

[[record]]
smiles_structure = "[2H]C([2H])([2H])NC(=O)c1cnc(NC(=O)C2CC2)cc1Nc1cccc2c1N(C)C([2H])([2H])c1ccnn1-2"
measured_value = "< 30 nM"

[[record]]
smiles_structure = "[2H]C([2H])([2H])NC(=O)c1nnc(NC(=O)C2CC2)cc1Nc1nccc2c1N(C)[C@H](C)c1cc(C)nn1-2"
measured_value = "< 30 nM"

[[record]]
smiles_structure = "[2H]C([2H])([2H])NC(=O)c1cnc(NC(=O)C2CC2)cc1Nc1cccc2c1N(C)Cc1cc(C)nn1-2"
measured_value = "< 30 nM"


Okay, next one:
Return IC50 (reported value) for this compound: CN1Cc2cn(C)nc2-c2cccc(Nc3cc(NC(=O)C4CC4)nc4[nH]n(C)c(=O)c34)c21 30 to 300 nM

====

# pIC50 listing for each entry below
Test system: TYK2 pseudokinase (JH2); IL-23-stimulated HEK-Blue IL-23 cells
Assay: HEK-Blue IL-23 reporter assay (STAT3-inducible SEAP) for profiling TYK2 pseudokinase (JH2) inhibition
Type: cell-based
Conditions: 10 ng/mL human recombinant IL-23, SEAP readout, read-out: IL23 (TYK2 inhibitory activity, IC50)
pIC50: −log10 of the molar value.

The examples below pair each entry with its known result.
[[record]]
compound = "[2H]C([2H])([2H])NC(=O)c1nnc(NC(=O)C2CC2)cc1Nc1nccc2c1N(C([2H])([2H])[2H])Cc1cn(C)nc1-2 [Compound 67]"
measured_value = "> 7.52"

[[record]]
compound = "CNC(=O)c1nnc(Nc2ccc(F)cn2)cc1Nc1cccc2c1N(C)Cc1cn(C)nc1-2 [Compound 12]"
measured_value = "> 7.52"

[[record]]
compound = "CNC(=O)c1nnc(Nc2ccc(F)cn2)cc1Nc1cccc2c1OCc1cn(C3COC3)nc1-2 [Compound 3]"
measured_value = "6.52 to 7.52"


# context switch: different compound, same pIC50
Complete the entry with pIC50 for CNC(=O)c1nnc(Nc2cc(C)nc(C)n2)cc1Nc1cccc2c1N(C)Cc1cn(C)nc1-2 [Compound 34] > 7.52
